From: PubChem BioAssay AID2060899

# System: 565726-208-R1-J5-PDC complex spheroids, growth inhibition;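 also: spheroids exposed to compounds for seven days before readout; 100% = DMSO vehicle control viability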
# Test details: Anticancer human tumor 565726-208-R1-J5-PDC patient-derived pancreatic adenocarcinoma cell line growth inhibition [RAS]
# Measurement parameters: second compound 0.0949 µM; first compound 10 µM; stronger effect = lower value
# From the text: RAS pathway inhibitors in Combinations in Complex Spheroids A high-throughput screen of multi-cell type tumor spheroids was designed to identify active combinations of RAS pathway inhibitors and targeted small molecules. Complex spheroids include a stromal component modeled by human endothelial cells (HUVEC) and fibroblasts modeled by human mesenchymal stem cells (MSCs). […] Compounds. […] If the clinical Cmax for an agent had not been determined, the highest concentration tested was 10 microM. […]

Compound	viability, T/C / %
CC(C)NCC(C(=O)N1CCN(c2ncnc3c2C(C)CC3O)CC1)c1ccc(Cl)cc1 (stereo not drawn) + CCn1c(-c2cccnc2C(C)OC)c2c3cc(ccc31)N1CCOC(CC(NC(=O)C(C(C)C)N(C)C(=O)C3(F)CCN(C(=O)C#CC(C)(C)N(C)C)CC3)C(=O)N3CCCC(N3)C(=O)OCC(C)(C)C2)C1	57.7
C[C@@H](NC(=O)c1ncnc(N)c1Cl)c1ncc(C(=O)Nc2cc(C(F)(F)F)c(Cl)cn2)s1 + CCn1c(-c2cccnc2C(C)OC)c2c3cc(ccc31)N1CCOC(CC(NC(=O)C(C(C)C)N(C)C(=O)C3(F)CCN(C(=O)C#CC(C)(C)N(C)C)CC3)C(=O)N3CCCC(N3)C(=O)OCC(C)(C)C2)C1	90.6
CC1(O)CCCC1n1c(=O)c(C(F)F)cc2cnc(NC3CCN(S(C)(=O)=O)CC3)nc21 (stereo not drawn) + CCn1c(-c2cc(N3CCN(C)CC3)cnc2C(C)OC)c2c3cc(ccc31)-c1csc(n1)CC(NC(=O)C1CC1C)C(=O)N1CCCC(N1)C(=O)OCC(C)(C)C2	2.88
C[C@@H](NC(=O)c1ncnc(N)c1Cl)c1ncc(C(=O)Nc2cc(C(F)(F)F)c(Cl)cn2)s1 + CCn1c(-c2cc(N3CCN(C)CC3)cnc2C(C)OC)c2c3cc(ccc31)-c1csc(n1)CC(NC(=O)C1CC1C)C(=O)N1CCCC(N1)C(=O)OCC(C)(C)C2	29.1
CC(C)NCC(C(=O)N1CCN(c2ncnc3c2C(C)CC3O)CC1)c1ccc(Cl)cc1 (stereo not drawn) + CCn1c(-c2cc(N3CCN(C)CC3)cnc2C(C)OC)c2c3cc(ccc31)-c1csc(n1)CC(NC(=O)C1CC1C)C(=O)N1CCCC(N1)C(=O)OCC(C)(C)C2	12.5
CC(Nc1ccc2c(c1)OCCn1cc(N3C(=O)OCC3C(F)F)nc1-2)C(N)=O (stereo not drawn) + CCn1c(-c2cccnc2C(C)OC)c2c3cc(ccc31)N1CCOC(CC(NC(=O)C(C(C)C)N(C)C(=O)C3(F)CCN(C(=O)C#CC(C)(C)N(C)C)CC3)C(=O)N3CCCC(N3)C(=O)OCC(C)(C)C2)C1	44.8
CC1(O)CCCC1n1c(=O)c(C(F)F)cc2cnc(NC3CCN(S(C)(=O)=O)CC3)nc21 (stereo not drawn) + CCn1c(-c2cccnc2C(C)OC)c2c3cc(ccc31)N1CCOC(CC(NC(=O)C(C(C)C)N(C)C(=O)C3(F)CCN(C(=O)C#CC(C)(C)N(C)C)CC3)C(=O)N3CCCC(N3)C(=O)OCC(C)(C)C2)C1	3.75
NC1c2ccccc2OC12CCN(c1cnc3c(N4CCCc5ncccc54)n[nH]c3n1)CC2 (stereo not drawn) + CCn1c(-c2cccnc2C(C)OC)c2c3cc(ccc31)N1CCOC(CC(NC(=O)C(C(C)C)N(C)C(=O)C3(F)CCN(C(=O)C#CC(C)(C)N(C)C)CC3)C(=O)N3CCCC(N3)C(=O)OCC(C)(C)C2)C1	57
